# Assay protocol: Log P by HPLC on reversed phase columns (EEC directive 79/831 Annex V.A8)
# Assay type: physicochemical
# Recorded conditions: method [a]: LC-UV, acidic range, 0.1% formic acid in water and acetonitrile; compounds of formula (VII)
Measured LogP, listed per entry for reference.

>  <Smiles notation>
O=C(Cn1cncn1)c1ccc(Oc2ccc(Cl)nc2)nc1C(F)(F)F

>  <LogP>
2.23^[a]

$$$$
>  <Smiles notation>
O=C(Cn1cncn1)c1ccc(Oc2ccc(Cl)nc2)nc1Cl

>  <LogP>
1.99^[a]

$$$$
>  <Smiles notation>
O=C(Cn1cncn1)c1cnc(Oc2ccc(C(F)(F)F)nc2)cc1C(F)(F)F

>  <LogP>
2.66^[a]

$$$$

Shifting focus to the compound that follows.
Param item = "O=C(Cn1cncn1)c1cnc(Oc2ccc(Br)nc2)cc1C(F)(F)F" ; retrieve measured LogP.
2.94^[a]
